Test: qHTS assay for small molecule agonists of the p53 signaling pathway - cell viability (AID 651633);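 also: p53RE-bla HCT reporter cells with a stable beta-lactamase p53 reporter; % is scaled to controls: 0 for no effect and ±100 for the full control effect; nearly all actives have a fitted effect of over 30% in size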
Details: p53RE-bla HCT-116 viability, ATP luminescence, 16 h; series mostly up to 83.3 µM
Excerpt: National Center for Advancing Translational Sciences [NCATS] NIH Chemical Genomics Center [NCGC] U.S. Environmental Protection Agency [EPA] National Institutes of Environmental Health Sciences [NIEHS] National Toxicology Program [NTP] U.S. Food and Drug Administration [FDA] p53, a tumor suppressor protein, is activated following cellular insult, including DNA damage and other cellular stresses. […] The activation of the reporter gene under culture conditions can be detected by fluorescence intensity. […]
Inconclusive results are not listed. Active and inactive are the calls of the source. Calls follow the shape of the full dose curve.
READOUT: activity change, negative = cytotoxicity

* O=C(CCl)NCO | inactive
* O=C(Cl)C(Cl)(Cl)Cl | inactive
* CCN(CC)CCOC(=O)C(O)(c1ccccc1)c1ccccc1 | inactive
* CCN[C@@H](C)Cc1cccc(C(F)(F)F)c1 | inactive
* Clc1ccc(C(Cl)(Cl)Cl)cn1 | inactive
* CC(C)C(C)(N)C#N (centres undefined) | inactive
* OP(O)c1ccccc1 | inactive
* COc1ccc2c(C(=O)c3ccc(Cl)cc3)c(C)n(CC(=O)O)c2c1 | inactive
* BrCc1ccc(Br)cc1 | inactive
* CC(C)(C)NC[C@H](O)c1ccc(O)cc1Cl | inactive
* O=C(O)C(Cl)Br (centres undefined) | inactive
* BrCCc1ccccc1 | inactive
* N#CC(Br)(Br)C(N)=O | inactive
* CCCCCCCCSC(=O)Oc1cc(Cl)nnc1-c1ccccc1 | inactive
* COc1cc(CC(C)N)cc(OC)c1OC (centres undefined) | inactive
* CCN(CC)C1CCCCC1 | inactive
* O=C1CCCCC1Cl (centres undefined) | inactive
* O=C(Cl)/C=C/C(=O)Cl | inactive
* CC(Cc1ccccc1)NCCn1cnc2c1c(=O)n(C)c(=O)n2C (centres undefined) | inactive
* CCOC(=O)NC(C)(C)Cc1ccc(Cl)cc1 | inactive
* O=C(NC(=O)c1c(F)cccc1F)Nc1cc(Cl)c(F)c(Cl)c1F | inactive
* C[C@]12C=CC(=O)C=C1CC[C@@H]1[C@@H]2CC[C@@]2(C)[C@H]1CC[C@]2(C)O | inactive
* C=CC(=O)OCCN(C)C | inactive
* CCCC[N+](=O)[O-] | inactive
* CC(C)(N)Cc1ccc(Cl)cc1 | inactive
* c1cncc([C@@H]2CCCCN2)c1 | inactive
* CC(O)CCl (centres undefined) | inactive
* S=C=S | inactive
* C=CCN1CC[C@]23CCCC[C@H]2[C@H]1Cc1ccc(O)cc13 | inactive
* CC(C)(C1CCC(O)CC1)C1CCC(O)CC1 (centres undefined) | inactive
* CNC(=O)Oc1ccccc1C(C)C | inactive
* O=C(Cl)CCl | inactive
* C#CC(C)(C)O | inactive
* Cc1ccc(-c2nc3ccc(C)cn3c2CC(=O)N(C)C)cc1 | inactive
* NNC(N)=O | inactive
* CNC(=O)NC(O)C(Cl)(Cl)Cl (centres undefined) | inactive
* CCOC(=O)C(SP(=S)(OC)OC)c1ccccc1 (centres undefined) | inactive
* C=CC1(C)OC(=O)N(c2cc(Cl)cc(Cl)c2)C1=O (centres undefined) | inactive
* CC(=NC#N)N(C)Cc1ccc(Cl)nc1 | inactive
* O=S1(=O)OCCO1 | inactive
* CC#Cc1cc(C)nc(Nc2ccccc2)n1 | inactive
* CCCOC(=O)Cc1ccc(OCC(=O)N(CC)CC)c(OC)c1 | inactive
* Oc1ccc(Cc2ccc(O)cc2)cc1 | inactive
* CC1NCCOC1c1ccccc1 (centres undefined) | inactive
* O=[N+]([O-])c1cccc(CCl)c1 | inactive
* Brc1c(Br)c(Br)c(Br)c(Br)c1Br | 9.67% [at 8.08 µM] (inactive)
* CCN(CCO)CCO | inactive
* Clc1cc2c(cc1Cl)Oc1cc(Cl)c(Cl)cc1O2 | -8.49% [at 0.33 µM] (inactive)
* CCC(C)(C#N)N=NC(C)(C#N)CC (centres undefined) | inactive
* C[C@H](CN1CCOCC1)C(C(=O)N1CCCC1)(c1ccccc1)c1ccccc1 | inactive
* O=C1CC(=O)NC(=O)N1 | inactive
* C[C@H]1CCCC(=O)CCC/C=C/c2cc(O)cc(O)c2C(=O)O1 | inactive
* Cn1c(N)nc2c3cccnc3ccc21 | inactive
* N#CN=C1SCCN1Cc1ccc(Cl)nc1 | inactive
* CCOC(=O)C(Cl)Cc1cc(-n2nc(C)n(C(F)F)c2=O)c(F)cc1Cl (centres undefined) | inactive
* CN1C(=O)COc2c(C(=O)NC3CN4CCC3CC4)cc(Cl)cc21 (centres undefined) | inactive
* O=C(O)C(F)(F)C(F)(F)C(F)(F)C(F)(F)C(F)(F)C(F)(F)F | inactive
* [P]#[In] | inactive
* CC[C@@H](CO)NC(=O)[C@@H]1C=C2c3cccc4c3c(cn4C)C[C@H]2N(C)C1 | inactive
